Taken from the METLIN SMRT retention time set (Domingo-Almenara et al. 2019).

- ASSAY SUMMARY: gradient 5% acetonitrile 3 min, to 50% in 2 min, to 85% in 15 min, held 3 min, 100 µL/min
- CONDITIONS: column: Zorbax Extend-C18 2.1 x 50 mm; eluents: water / acetonitrile, 0.1% formic acid
RP-LC retention time strictly less than 800 s = 1. Otherwise -1.

For CCc1nc2cc(-c3noc(Cc4cc(OC)cc(OC)c4)n3)ccc2o1 , is the recorded RP-LC retention time below the cut-off of 800 s? -1

Do the same for O=C(NCc1ccco1)Nc1ccc([N+](=O)[O-])cc1 please -1

Similarly, Cc1nc(Cn2cccc2C(=O)Nc2ccc(C)c(Cl)c2)no1 ? -1

Entry O=c1oc2c(O)c(O)ccc2c2c1CCC2 please 1

Here is the next molecule: Cc1ccc(-n2nc3c(=O)n(CCCC(=O)NC4CC4)nc(C)c3c2C)cc1 1

What do we get for CCn1cnc(S(=O)(=O)N2CCC(C(=O)Nc3cccc(Cl)c3)CC2)c1 ? 1

Item: CN1CC[C@H](c2c(O)cc(O)c3c(=O)cc(-c4ccccc4Cl)oc23)[C@H](O)C1 1

Do the same for O=S(=O)(c1cc(-c2nnc(C3CC3)o2)co1)N1CCC(N2CCCCC2)CC1 please 1

Would you kindly repeat that for CCN1C(=O)c2cccc3c(NC(=O)Cc4ccc(S(C)(=O)=O)cc4)ccc1c23 ? 1

Do the same for O=C(C1CCN(c2ccc(Sc3cccc(F)c3)nn2)CC1)N1CCN(c2ccccn2)CC1 please 1

Now consider Cc1c(C2CCN(C(=O)c3nccc4ccccc34)CC2)noc1N . 1

Another molecule to look at: CCC(=O)N1CCc2cc(S(=O)(=O)CCC(=O)N3CC(C)CC(C)C3)ccc21 (centres undefined) -1

Now the molecule CCN1CCN(CCCNC(=O)C2CCN(Cc3cn(C)c4ccc(Cl)cc34)CC2)CC1 1

Item: O=C(NCCc1csc(-c2cccs2)n1)C1CCN(C(=O)Cc2ccc(F)cc2)CC1 1

Likewise for CCN(CC)S(=O)(=O)c1cc(-c2nnc(-c3ccccc3OC)o2)ccc1OC ? -1

Another molecule to check: Cc1ccc(S(=O)(=O)N2CCc3nc(-c4ccc(F)cc4)ncc3C2)c(C)c1 -1
